# System: HL-60(TB) leukemia
# ASSAY_NAME: NCI tumour cell line growth inhibition, 48 h
*1 amine or outer side, *2 acyl side, *3 side chain or, on linkers, in order; H or OH if unused. Where a SMILES comes first, the peptide text is derived from it. Bridges are numbered along the chain shown (N, C = ends). [ ]: non-standard residue; d: D form. X35 = CC[C@H](C)[C@@H](N[*:1])[C@@H](O)CC(=O)O[C@H](C(=O)[C@H](C)C(=O)[*:2])C(C)C; NMeY = CN[C@@H](Cc1ccc(O)cc1)C(=O)O
RECORDED_METRIC: TGI (µM)

MOLECULE	OPERATOR_SYMBOL	REPORTED_MEASUREMENT
Oc1ccc2c(=S)cc(-c3ccc(Br)cc3)oc2c1O	=	6.24
O=C1c2ccccc2C(=O)N1CCCOCc1c[nH]c(=O)[nH]c1=O	>	100
CCOC(=O)C1=C(C)NC(=O)NC1c1ccc(OC)cc1OC (stereo not given)	>	100
COc1ccc(OC)c(Nc2nc3nonc3nc2Nc2cccc(Br)c2)c1	=	5.9
O=C=C=P(c1ccccc1)(c1ccccc1)c1ccccc1	=	92.4
COC(=O)[C@H](Cc1cn(C)cn1)NC(=O)[C@H](CC(=O)OCc1ccccc1)NC(=O)Nc1cc(C(F)(F)F)cc(C(F)(F)F)c1	=	27.1
O=C(O)CCC(NC(=O)c1ccc(Nc2cnc3cc(C(F)(F)F)ccc3n2)cc1)C(=O)O (stereo not given)	>	100
CC1(C)C(=O)OC(n2cc(F)c(=O)[nH]c2=O)C1=O (stereo not given)	>	100
C=C1c2nc3ccccc3n2C=C(c2ccccc2)N1c1ccc(Cl)cc1	>	100
CC(C)(C)[Si](C)(C)OCC1OC(n2cnc3c(=O)[nH]cnc32)CC1O (stereo not given)	>	100
COc1cc2c(cc1OC)C(C(CCCCCC(CCC(C)C)C1NCCc3cc(OC)c(OC)cc31)CCC(C)C)NCC2 (stereo not given)	=	2.55
N#Cc1c(Cl)cc(C#N)n2c1nc1ccccc12	=	3.03
O=C(/C=C/c1ccccc1)c1cccc2ccccc12	=	5.21
COc1cc(S(=O)(=O)Nc2ccc(-c3csc(N4C(=O)C(C)SC4c4cccs4)n3)cc2)ccc1Cl (stereo not given)	=	41.7
CSc1c(C#N)c(=O)n(N)c2c1c(C)nn2-c1ccccc1	=	94.5
CC1(C)c2ccccc2N2C(c3ccccc3)=NOC21C (stereo not given)	>	100
C[N+](C)(C)CC(=O)N/N=C(\Cc1nc2ccc([N+](=O)[O-])cc2[nH]c1=O)C(=O)Nc1nc2ccc([N+](=O)[O-])cc2s1	>	100
COC(=O)[C@@H]1C[C@@H](O)CN1C(=O)c1ccc([N+](=O)[O-])cc1[N+](=O)[O-]	>	100
C/C(=C\COP(=O)(O)OP(=O)(O)O)CCCCCCOCc1ccccc1	>	100
Cc1ccc2[nH]c3c(c(=O)n(C)c(=O)n3C)c2c1	>	100
O=C(OCc1ccccc1)C(Cc1ccc(OCc2ccccc2)cn1)NC(=O)C(F)(F)F (stereo not given)	>	100
CC(=O)[CH-]C(=O)c1ccccc1.CC(=O)[CH-]C(=O)c1ccccc1.Cl.[O-]c1ccnc2ccccc12.[O-]c1ccnc2ccccc12.[Ti+4]	>	100
NC(=O)c1c(NC(=O)c2cccs2)sc2c1CCC(=O)C2	=	7.13
C=CCCCCCCCCCP(=O)(c1ccccc1)c1ccc2c(c1)OCCOCCOCCOCCO2 (stereo not given)	=	19.7
COC(=O)[C@@H]1CN(C(=O)CCc2ccccc2)C(=O)N1	>	100
O=C(O)CCC(c1ccccc1)(c1ccccc1)c1ccccc1	>	90.6
Cc1ccc(S(=O)(=O)OCOS(=O)(=O)c2ccc(C)cc2)cc1	>	100
COCn1cc(C2=C(C)C(=O)C(C)=C(C)C2=O)cn1	=	24.3
Cc1sc(C(=O)c2cncnc2N[C@@H]2C[C@H](COS(N)(=O)=O)[C@@H](O)C2)cc1[C@@H]1NCCc2ccc(Cl)cc21	=	13.2
Cc1cc(=O)oc2c1cc1ccc3cccc4ccc2c1c34	>	100
Cc1ccc(C[As+](c2ccccc2)(c2ccccc2)c2ccccc2)cc1	=	1.48
CC(=Nc1ccc(N(C)C)cc1)c1ccccc1	=	43.9
C=C1c2nc3ccccc3n2C=C(c2cccc(Cl)c2)N1Cc1ccc(OC)cc1	=	0.639
CC1OC(n2cc(C(F)(F)F)c(=O)[nH]c2=O)C=CC1=O (stereo not given)	=	41.2
O=Cc1ccc2ccocc1-2	>	100
S=C1NC2=C(CSC/C2=C\c2ccc(Cl)cc2)C(c2ccc(Cl)cc2)N1 (stereo not given)	=	70.7
CCOc1cc(-c2nncn2C)ccc1Nc1ncc2cc(C)nc(NCC(C)(C)C)c2n1	>	100
CC[C@H](C)[C@H]1NC(=O)[C@@H](N)[C@@H](C)OC(=O)[C@H](Cc2ccc(OC)cc2)N(C)C(=O)[C@@H]2CCCN2C(=O)[C@H](CC(C)C)NC(=O)[C@@H](C)C(=O)[C@H](C(C)C)OC(=O)C[C@@H]1O (H-T[X35]LP[NMeY](Me); ester 1-C)	>	100
O=C1C=C(NCCO)c2nccc3c2c1nc1ccccc13	>	100
CCc1nc(C)cn1C(=O)OCc1nc2nc(Cl)nc(N3CCOCC3)c2[nH]1	=	3.15
